Taken from patent US20230382979A1.

molecular target: Receptor-binding domain (RBD) of the SARS-CoV-2 spike protein, WA01/2020 strain (SARS-CoV-2, WA01/2020 strain, UniProt P0DTC2 319-541); assay: ELISA, antibody blocks RBD binding to human ACE2
Could you please report measured pIC50 for the items listed next?
# pIC50 is unitless: minus log10 of the molar concentration; print number only

// antibody 2706 (antibody, V domains shown) VH: QVQLVQSGAEVKKPGSSVKVSCKASGGTFSTYAISWVRQAPGQGLEWMGGIIPLFATANYAQNFQGRVTITADKSTSTAYMELSSLRSEDTAVYYCASVRLHLEELSLSHQGDYYYGLDVWGQGTTVTVSS VL: DIQMTQSPSSLSASVADRVTITCQASQDISHYLNWYQQKPGKAPQLLIYDASKLETGAPSRFSGSGSGTDFTFTISSLQPEDIATYYCQQYDHLPLTFGGGSKVEIK : pIC50 value = 9.29

# pIC50 of antibody 1227 (antibody, V domains shown) VH: QMQLVQSGAEVKKTGSSVKVSCEASGYTFTNRYLHWVRQAPGQALEWMGWITPFQGNTNYAQKFQDRVTITRDMSMNTVYMELSSLRSEDTAKYYCASGGQYGAGSYYLEDWGQGTLVTVSS VL: EIVMTQSPATLSVSPGERATLSCRASQSVRSNLAWYRQKPGQAPRLLIYGASTRATGVPARFSGSGSGTEFTLTISSLQSEDFAVYYCQQYINWPPLTFGGGTRVEIK = 7.84

Note to self: pIC50 recorded for antibody 4441 (antibody, V domains shown) VH: EVQLVESGGGLVQPGRSLRLSCAASGLTFEDYAMHWVRQPPGKGLEWVSGVSWNSGTIGYADSVKGRFTISRDNAKNSLYLHMRSLGAEDTAMYYCAKDMGGRFSFFSLENDAFDIWGQGTMVIVSS VL: SYELTQPPSVSVSPGQTARITCSGDALPKQSTYWYQQKPGQAPVLVIYKDIERPSGIPERFSGSSSGTTVTLTISGVQAEDEADYYCQSADSSDTYVFGTGTKVTVL was 8.99
